# TARGET_ENTITY: Subtilisin BL (Bacillus lentus, UniProt P29599, M222C)
# Sequence (P29599 whole entry, looked up, stated change not applied): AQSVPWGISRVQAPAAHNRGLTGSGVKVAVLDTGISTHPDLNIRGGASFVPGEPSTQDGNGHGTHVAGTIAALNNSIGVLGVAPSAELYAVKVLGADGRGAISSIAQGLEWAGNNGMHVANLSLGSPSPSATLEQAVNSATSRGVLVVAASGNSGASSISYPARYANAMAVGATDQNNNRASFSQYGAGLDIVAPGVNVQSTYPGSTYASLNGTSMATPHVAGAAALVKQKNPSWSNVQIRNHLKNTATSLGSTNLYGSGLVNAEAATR
Rule: measured Ki below 200 µM gets fulfilled; anything equal to or greater than 200 µM gets not fulfilled.

INPUT: Given the entry `OB(O)c1ccc(Br)cc1` , would its reported Ki be below 200 µM?
OUTPUT: fulfilled

INPUT: Given the entry `OB(O)CCc1ccc2ccccc2c1` , would its reported Ki be below 200 µM?
OUTPUT: not fulfilled

INPUT: Given the entry `COc1ccc(B(O)O)cc1` , would its reported Ki be below 200 µM?
OUTPUT: not fulfilled

INPUT: Given the entry `OB(O)c1ccc(Cl)cc1Cl` , would its reported Ki be below 200 µM?
OUTPUT: fulfilled

INPUT: Given the entry `OB(O)c1cccc(-c2ccccc2)c1` , would its reported Ki be below 200 µM?
OUTPUT: fulfilled

INPUT: Given the entry `OB(O)c1ccccc1` , would its reported Ki be below 200 µM?
OUTPUT: fulfilled

INPUT: Given the entry `OB(O)CCc1ccc(Cl)cc1` , would its reported Ki be below 200 µM?
OUTPUT: not fulfilled

INPUT: Given the entry `COc1ccc(CCB(O)O)cc1` , would its reported Ki be below 200 µM?
OUTPUT: not fulfilled
